// provenance: patent EP1090020B1

ASSAYED_TARGET: human adenosine receptor (adenosine 3) (Homo sapiens)
Sequence (P0DMS8 whole entry): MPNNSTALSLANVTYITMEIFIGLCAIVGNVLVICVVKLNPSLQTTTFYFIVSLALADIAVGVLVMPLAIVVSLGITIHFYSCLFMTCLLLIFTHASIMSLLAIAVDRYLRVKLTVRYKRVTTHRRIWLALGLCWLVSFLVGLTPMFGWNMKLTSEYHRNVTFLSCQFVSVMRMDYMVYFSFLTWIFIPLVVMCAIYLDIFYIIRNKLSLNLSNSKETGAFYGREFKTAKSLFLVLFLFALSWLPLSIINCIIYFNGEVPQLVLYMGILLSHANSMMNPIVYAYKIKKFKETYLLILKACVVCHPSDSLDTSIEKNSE
PROCEDURE_SUMMARY: Agonist activity against adenosine 3 receptor subtype (CHO cells, cAMP response element/SPAP reporter)
Type: cell-based
EXPERIMENTAL_CONDITIONS: transfected CHO cells; effect on forskolin-enhanced cAMP reflected by SPAP; ratio to NECA
REPORTED_ENDPOINT: A3; EC50 values as a ratio of that of NECA

Value sought for every listed compound: A3; EC50 values as a ratio of that of NECA.
1. CC(C)[C@@H](CO)Nc1nc(NCC(c2ccccc2)c2ccccc2)c2ncn([C@@H]3O[C@H](c4nnc[nH]4)[C@@H](O)[C@H]3O)c2n1.O=CO
2. N[C@H]1CC[C@H](Nc2nc(NCC(c3ccccc3)c3ccccc3)c3ncn([C@@H]4O[C@H](c5nnc[nH]5)[C@@H](O)[C@H]4O)c3n2)CC1.O=CO
3. O=CO.OC[C@H](Cc1ccccc1)Nc1nc(NCC(c2ccccc2)c2ccccc2)c2ncn([C@@H]3O[C@H](c4nnc[nH]4)[C@@H](O)[C@H]3O)c2n1

> 306
> 353
> 326
